Test system: KM12 colon
test: NCI tumour cell line growth inhibition, 48 h
measuredParameter: TGI

CCCOC(=O)c1ccc2c(c1)[N+](=O)C(C(=O)c1ccccc1)=C(C(F)(F)F)[N+]2=O :: 3.44 µM
Clc1ccc(-c2noc(CN3CCCCC3)n2)cc1 :: > 100 µM
COC(=O)c1c(O)c2c(c3c1OC(C)(C)CC3)OC(C)(C)CC2 :: 31.6 µM

So what's the measured TGI for this one? ClCc1nn(-c2ccccc2)c(CCl)c1CCl 11.9 µM

So what's the measured TGI for this one? CCOC(=O)C1=NC(c2ccccc2)(c2ccccc2)OC1=C(Cl)Cl > 100 µM

###

System: HCT-15 colon
test: NCI tumour cell line growth inhibition, 48 h
measuredParameter: log10 TGI (log10 of the value in µM)
Annotation: log10 of TGI, µM basis.

Answered examples (3):
CC(=O)c1c(SCCN2CCCCCC2)n(-c2ccccc2)c(=S)n(-c2ccccc2)c1=O :: 1.53
COc1ccc2c(c1)SC1=NNC(Cl)C(=O)N12 (stereo unspecified) :: 1.58
C=CCSSC1N=CNc2nc[nH]c21 (stereo unspecified) :: 1.39

So what's the measured log10 TGI for this one? CC/C(=C(\c1ccc(Cl)cc1)c1ccc(OCCN2CCCCC2)cc1)c1ccc(O)cc1 0.50

So what's the measured log10 TGI for this one? Clc1nc(Cl)c2ncn(CC#CCn3cnc4c(Cl)nc(Cl)nc43)c2n1 0.61

###

System: HCT-15 colon
measuredParameter: GI50

Answered examples (8):
CCSc1nc2[nH]c(=S)[nH]c(=S)c2c(-c2ccc(OC)c(OC)c2)c1C#N :: 16.5 µM
COc1ccc(C(O)c2cc3c(N)c(C(=O)Nc4ccc(Br)cc4)sc3nc2C)cc1 (stereo not given) :: 1.57 µM
Nc1nonc1-c1nc2cnccc2n1C1CCCCC1 :: 13.4 µM
COC(=O)c1ccc2[nH]c(O)c(C(=Nc3ccc(N(C)C(=O)CN4CCN(C)CC4)cc3)c3ccc(OC)cc3)c2c1 :: 1.81 µM
COc1ccc(/C=C/C(=O)c2ccc(NC(=O)CSc3nnc(-c4ccc(OC)c(OC)c4)n3-c3ccccc3)cc2)cc1 :: 1.8 µM
O=C(O)CN1CCN(CC(=O)O)CCN(CC(=O)O)CC1 :: 9440 µM
Cc1ccc(-c2c3c(nn2-c2ccc(S(=O)(=O)NC(=O)Nc4ccccc4)cc2)-c2ccccc2C3)cc1 :: 15.5 µM
Clc1ccc(-c2ccc(CNCC3CCNCC3)o2)c(-c2ccccc2)c1 :: 1.19 µM

So what's the measured GI50 for this one? CC#CC#Cc1cccc(=O)o1 8.08 µM

So what's the measured GI50 for this one? COc1cccc2c(Nc3ccc(C(=O)O)cc3)cc(-c3ccccc3)nc12 > 100 µM

###

The entries below come with measured TGI values attached.
Tested on: A498 renal
test: NCI tumour cell line growth inhibition, 48 h
Form entry: value (µM) — number only.

So what's the measured TGI for this one? COC(=O)c1ccc2[nH]c(O)c(C(=Nc3ccc(N(C)C(=O)CN4CCN(C)CC4)cc3)c3ccc(OC)cc3)c2c1 3.11

So what's the measured TGI for this one? O=C(C=P(c1ccccc1)(c1ccccc1)c1ccccc1)CC(=S)CC(=O)C=P(c1ccccc1)(c1ccccc1)c1ccccc1 20.6

So what's the measured TGI for this one? COC(=O)c1c(O)ccc2c1c1c(n2CCc2ccccc2)C(=O)c2ccccc2C1=O 31.5

So what's the measured TGI for this one? CC(C)OC(=O)Nc1ccc(-c2nc(-c3cccc(OCCN4CCOCC4)c3)c(-c3ccnc(Br)c3)[nH]2)cc1 4.12
